FYI, the data here is from patent EP4603105A1.

# System: human lung cancer strain NCI-H441
# Type: cell-based
Where a SMILES comes first, the peptide text is derived from it. Bridges are numbered along the chain shown (N, C = ends). [ ]: non-standard residue; d: D form. The star is where a group is joined. hPhe(3-Cl-4-CF3) = N[C@@H](CCc1ccc(C(F)(F)F)c(Cl)c1)C(=O)O; NPrPhe(4-CF3) = CCCN[C@@H](Cc1ccc(C(F)(F)F)cc1)C(=O)O; NMeGly(cPent) = CN[C@H](C(=O)O)C1CCCC1; NMeD = CN[C@@H](CC(=O)O)C(=O)O; NMeL = CN[C@@H](CC(C)C)C(=O)O; Morpholide = C1CN(*)CCO1; Ac5c = NC1(C(=O)O)CCCC1; Aze = O=C(O)[C@@H]1CCN1; Sar = CNCC(=O)O
READOUT_LABEL: IC50 (nM)
Response body: numeric value in nM, unit text excluded.

Take a look at these entries with their results.
INSERT INTO assay_data (compound, units_label, test_result) VALUES
  ('CCC[C@H]1C(=O)N[C@@H]([C@@H](C)CC)C(=O)N(C)CC(=O)N(C)[C@H]2C/C=C\CCN(C2=O)[C@@H](Cc2ccc(C)cc2)C(=O)N(C)CC(=O)N[C@@H](CCc2ccc(Cl)c(Cl)c2)C(=O)N2C[C@H](OCC)C[C@H]2C(=O)NC2(CC(C)(C)C2)C(=O)N(C)[C@@H](CC2CC2)C(=O)N(C)[C@H](C(=O)N(C)C)CC(=O)N1C', 'nM', 136),
  ('CCO[C@@H]1C[C@H]2C(=O)NC3(CC(C)(C)C3)C(=O)N(C)[C@@H](C3CCCC3)C(=O)N(C)[C@H](C(=O)N(C)CC)CC(=O)N(C)[C@@H]([C@@H](C)OC)C(=O)N[C@@H]([C@@H](C)CC)C(=O)N(C)CC(=O)N(C)[C@H]3C/C=C\CCN(C3=O)[C@@H](Cc3ccc(C(F)(F)F)cc3)C(=O)N(C)CC(=O)N[C@@H](CCc3ccc(C(F)(F)F)c(OC)c3)C(=O)N2C1', 'nM', 9.7);

Shift focus to the following entry.
Ask: For the compound CCCN1C(=O)CN(C)C(=O)[C@@H]2CCN2C(=O)[C@H]([C@@H](C)CC)NC(=O)[C@H](CC(C)C)N(C)C(=O)C[C@@H](C(=O)N2CCOCC2)N(C)C(=O)[C@H](C2CCCC2)N(C)C(=O)C2(CCCC2)NC(=O)[C@@H]2CCN2C(=O)[C@H](CCc2ccc(C(F)(F)F)c(Cl)c2)NC(=O)CN(C)C(=O)[C@@H]1Cc1ccc(C(F)(F)F)cc1 [PP0307] ([NMeL]I[Aze][Sar][NPrPhe(4-CF3)][Sar][hPhe(3-Cl-4-CF3)][Aze][Ac5c][NMeGly(cPent)][NMeD]-Morpholide; lactam N-11) , give its reported IC50.
Reply: 205

* * *

# Test system: human lung cancer strain NCI-H441
# Type: cell-based
# Description: A test compound was dispensed into a U-bottom 384-well plate as 40 nL serially diluted dimethyl sulfoxide solutions using a liquid handler Echo (LABCYTE). […] This cell suspension was dispensed in an amount of 40 µL per well into a plate containing the test compound, and cultured at 37°C in a 5% carbon dioxide gas incubator. Four days later, 20 µL of CellTiter-Glo (registered trademark) (Promega) was added to each well and […] was measured. […]
*1 amine or outer side, *2 acyl side, *3 side chain or, on linkers, in order; H or OH if unused. Where a SMILES comes first, the peptide text is derived from it. Bridges are numbered along the chain shown (N, C = ends). [ ]: non-standard residue; d: D form. The star is where a group is joined. X6 = CC(C)(C)CCN([C@@H](Cc1ccc(C(F)(F)F)cc1)C(=O)[*:2])[*:1]; hPhe(3-Cl-4-CF3) = N[C@@H](CCc1ccc(C(F)(F)F)c(Cl)c1)C(=O)O; NMeGly(cPent) = CN[C@H](C(=O)O)C1CCCC1; NMeD = CN[C@@H](CC(=O)O)C(=O)O; NMeL = CN[C@@H](CC(C)C)C(=O)O; Morpholide = C1CN(*)CCO1; NMeA = CN[C@@H](C)C(=O)O; Ac5c = NC1(C(=O)O)CCCC1; Aze = O=C(O)[C@@H]1CCN1; Sar = CNCC(=O)O
// returns not fulfilled unless IC50 is strictly below 40 nM, in which case fulfilled

# count of solved cases: 5
INSERT INTO measurements (compound, assigned_label) VALUES
  ('CC[C@@H]1C[C@H]2C(=O)NC3(CCCC3)C(=O)N(C)[C@@H](C3CCCC3)C(=O)N(C)[C@H](C(=O)N(C)C)CC(=O)N(C)[C@@H](CC(C)C)C(=O)N[C@@H]([C@@H](C)CC)C(=O)N(C)CC(=O)N(C)[C@H]3C/C=C\CCN(C3=O)[C@@H](Cc3ccc(C)cc3)C(=O)N(C)CC(=O)N[C@@H](CCc3cc(F)c(C(F)(F)F)c(F)c3)C(=O)N2C1', 'not fulfilled'),
  ('CC[C@H](C)[C@@H]1NC(=O)[C@H](CC(C)C)N(C)C(=O)C[C@@H](C(=O)N2CCOCC2)N(C)C(=O)[C@H](C2CCCC2)N(C)C(=O)C2(CCCC2)NC(=O)[C@@H]2CCCN2C(=O)[C@H](CCc2ccc(C(F)(F)F)c(Cl)c2)NC(=O)CN(C)C(=O)[C@H](Cc2ccc(C(F)(F)F)cc2)N(CCC(C)(C)C)C(=O)[C@@H]2CCN2C(=O)[C@H](C)N(C)C1=O [PP0113] ([NMeL]I[NMeA][Aze][X6][Sar][hPhe(3-Cl-4-CF3)]P[Ac5c][NMeGly(cPent)][NMeD]-Morpholide; lactam N-11)', 'fulfilled'),
  ('CCC[C@H]1C(=O)N[C@@H]([C@@H](C)CC)C(=O)N(C)CC(=O)N(C)[C@H]2C/C=C\CCN(C2=O)[C@@H](Cc2ccc(C)cc2)C(=O)N(C)CC(=O)N[C@@H](CCc2ccc(C(F)(F)F)c(OC)c2)C(=O)N2C[C@@H](C)C[C@H]2C(=O)NC2(CC(C)(C)C2)C(=O)N(C)[C@@H](C2CCCC2)C(=O)N(C)[C@H](C(=O)N(C)C)CC(=O)N1C', 'fulfilled'),
  ('CC[C@H](C)[C@@H]1NC(=O)[C@H](CC(C)C)N(C)C(=O)C[C@@H](C(=O)N2CCOCC2)N(C)C(=O)[C@H](C2CCCC2)N(C)C(=O)C2(CCCC2)NC(=O)[C@@H]2CCCN2C(=O)[C@H](CCc2ccc(C(F)(F)F)c(Cl)c2)NC(=O)CN(C)C(=O)[C@H](Cc2ccccc2)N2CCCCC[C@@H](C2=O)N(C)C(=O)CN(C)C1=O', 'not fulfilled'),
  ('CCC[C@H]1C(=O)N[C@@H](C(CC)CC)C(=O)N(C)CC(=O)N(C)[C@H]2C/C=C\CCN(C2=O)[C@@H](Cc2ccc(C)cc2)C(=O)N(C)CC(=O)N[C@@H](CCc2ccc(C(F)(F)F)c(Cl)c2)C(=O)N2C[C@H](OCC)C[C@H]2C(=O)NC2(CC(C)(C)C2)C(=O)N(C)[C@@H](C2CCCC2)C(=O)N(C)[C@H](C(=O)N(C)C)CC(=O)N1C', 'fulfilled');

Now, please, on to the next compound.
Ask: API: query returns whether the compound falls strictly under 40 nM in IC50. Query: CCC[C@H]1C(=O)N[C@@H]([C@@H](C)CC)C(=O)N(C)CC(=O)N(C)[C@H]2C/C=C\CCN(C2=O)[C@@H](Cc2ccc(C)cc2)C(=O)N(C)CC(=O)N[C@@H](CCc2cc(Cl)c3c(ccn3C)c2)C(=O)N2C[C@H](OCC)C[C@H]2C(=O)NC2(CC(C)(C)C2)C(=O)N(C)[C@@H](C(CC)CC)C(=O)N(C)[C@H](C(=O)N(C)C)CC(=O)N1C
Reply: not fulfilled

* * *

# Tested on: human gastric cancer strain SNU-1
# Assay type: cell-based
READOUT_LABEL: IC50 (nM)
Response body: numeric value in nM, unit text excluded.

INSERT INTO results (compound, test_result) VALUES
  ('CCC[C@H]1C(=O)N[C@@H]([C@@H](C)CC)C(=O)N(C)CC(=O)N(C)[C@H]2C/C=C\CCN(C2=O)[C@@H](Cc2ccc(C(F)(F)F)cc2)C(=O)N(C)CC(=O)N[C@@H](CCc2cc(F)c(C(F)(F)F)c(F)c2)C(=O)N2CC3(CC3)C[C@H]2C(=O)N(C)C2(CCC2)C(=O)N(C)[C@@H](C2CCCC2)C(=O)N(C)[C@H](C(=O)N(C)C)CC(=O)N1C [PP3356]', 4),
  ('CCO[C@@H]1C[C@H]2C(=O)NC3(CCCC3)C(=O)N(C)[C@@H](C3CCCC3)C(=O)N(C)[C@H](C(=O)N(C)C)CC(=O)N(C)[C@@H](CC(C)C)C(=O)N[C@@H]([C@@H](C)CC)C(=O)N(C)CC(=O)N(C)[C@H]3C/C=C\CCN(C3=O)[C@@H](Cc3ccc(C)cc3)C(=O)N(C)CC(=O)N[C@@H](CCc3cc(F)c(C(F)(F)F)c(F)c3)C(=O)N2C1 [PP3478]', 4),
  ('CCC[C@H]1C(=O)N[C@@H]([C@@H](C)CC)C(=O)N2CCC[C@H]2C(=O)N(C)[C@H]2C/C=C\CCN(C2=O)[C@@H](Cc2ccc(C(F)(F)F)cc2)C(=O)N(C)CC(=O)N[C@@H](CCc2ccc(C(F)(F)F)c(OC)c2)C(=O)N2C[C@H](OCC)C[C@H]2C(=O)OC2(CCC2)C(=O)N(C)[C@@H](C2CCCC2)C(=O)N(C)[C@H](C(=O)N(C)C)CC(=O)N1C [PP3368]', 20.4);

Ask: For the compound CCO[C@@H]1C[C@H]2C(=O)NC3(CCCC3)C(=O)N(C)[C@@H](C3CCCC3)C(=O)N(C)[C@H](C(=O)N(C)C)CC(=O)N(C)[C@@H]([C@@H](C)OC)C(=O)N[C@@H]([C@@H](C)CC)C(=O)N(C)CC(=O)N(C)[C@H]3C/C=C\CCN(C3=O)[C@@H](Cc3ccc(C)cc3)C(=O)N(C)CC(=O)N[C@@H](CCc3cc(F)c(C(F)(F)F)c(F)c3)C(=O)N2C1 [PP3481] , give its reported IC50.
Reply: 8.2
